Target: gelatinase B (MMP-9) (Homo sapiens)
Sequence (P14780 94-707): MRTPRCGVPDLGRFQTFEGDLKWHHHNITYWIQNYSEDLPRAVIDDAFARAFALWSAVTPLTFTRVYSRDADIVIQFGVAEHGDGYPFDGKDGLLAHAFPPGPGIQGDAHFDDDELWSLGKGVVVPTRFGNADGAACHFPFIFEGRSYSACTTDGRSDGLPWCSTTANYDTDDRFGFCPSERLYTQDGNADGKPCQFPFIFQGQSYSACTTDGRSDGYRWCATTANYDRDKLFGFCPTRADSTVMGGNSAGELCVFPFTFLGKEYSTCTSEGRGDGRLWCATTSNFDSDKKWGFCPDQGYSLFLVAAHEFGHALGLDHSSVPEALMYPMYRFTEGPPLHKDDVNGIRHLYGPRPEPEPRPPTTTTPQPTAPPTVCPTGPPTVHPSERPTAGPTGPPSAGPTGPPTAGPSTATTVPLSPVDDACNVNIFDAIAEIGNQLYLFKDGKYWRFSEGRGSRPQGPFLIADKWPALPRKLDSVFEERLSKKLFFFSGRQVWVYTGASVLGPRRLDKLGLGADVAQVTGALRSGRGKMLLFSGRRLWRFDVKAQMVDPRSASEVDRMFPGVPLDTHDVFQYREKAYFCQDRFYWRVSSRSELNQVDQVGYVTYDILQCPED
reported.property: IC50 (µM)
Could you give me the number in µM? Just the number is fine.

Returns the measured IC50 for the input compound. Input: `O=C(/C=C/c1ccc(O)c(O)c1)O[C@H](Cc1ccc(O)c(O)c1)C(=O)O`
83.3

Where these numbers come from: patent US8101212B2
